The reported numbers originate from patent US20240425512A1.

Test system: GP2D cells
Assay: Proliferation inhibition on RAS cell lines measured by CTG, GP2D
Format: cell-based
Conditions: Table 3, incubated for 6 days, CellTiter Glo, read-out: IC50 (GP2D^l)
Experimental readout: IC50

q: Give the reported value of IC50 for this record: C#Cc1c(F)ccc2cc(OC(=O)N[C@H](C(=O)O)[C@@H](C)CC)cc(-c3ncc4c(N5CCCCCN5)nc(OC[C@@]56CCCN5C[C@H](F)C6)nc4c3F)c12
a: < 100 nM

q: Give the reported value of IC50 for this record: C#Cc1c(F)ccc2cc(OC(=O)c3cc(F)c(F)c(F)c3)cc(-c3ncc4c(N5CCCCCN5)nc(OC[C@@]56CCCN5C[C@H](F)C6)nc4c3F)c12
a: < 100 nM

q: Give the reported value of IC50 for this record: C#Cc1c(F)ccc2cc(O)cc(-c3ncc4c(N5CCCCCN5)nc(OCC5(CN6CCN(c7cc(F)c(F)c(F)c7)CC6)CC5)nc4c3F)c12
a: 100 to 1000 nM
